Target or test system: Adenosine receptor A2a (Homo sapiens) (UniProt P29274)
Sequence (P29274 whole entry): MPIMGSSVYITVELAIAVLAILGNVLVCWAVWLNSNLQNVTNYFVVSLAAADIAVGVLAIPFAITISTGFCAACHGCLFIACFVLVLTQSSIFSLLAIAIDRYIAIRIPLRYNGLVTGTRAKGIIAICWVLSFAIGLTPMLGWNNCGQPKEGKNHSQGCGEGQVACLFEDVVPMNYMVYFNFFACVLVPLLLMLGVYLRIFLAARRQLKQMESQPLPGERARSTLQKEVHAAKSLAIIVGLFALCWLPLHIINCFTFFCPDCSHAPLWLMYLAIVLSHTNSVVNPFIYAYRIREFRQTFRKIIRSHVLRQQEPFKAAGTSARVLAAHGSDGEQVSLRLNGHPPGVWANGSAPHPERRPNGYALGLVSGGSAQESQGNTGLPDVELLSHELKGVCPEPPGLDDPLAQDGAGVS
Measurement protocol: Displacement of [3H]NECA from human cloned adenosine A2A receptor expressed in CHO cells at 10 uM
Assay type: cell-based
Measured attribute: inhibition (%)

Before answering, review these 2 worked examples.
- Smi: "COc1cccc(NC(=O)Nc2nn(-c3ccccc3)c(=O)c3ccccc23)c1"
  Target or test system: "Adenosine receptor A2a (Homo sapiens) (UniProt P29274)"
  inhibition (%): 28
- Smi: "CC(=O)N(C(C)=O)c1nn(-c2ccccc2)c(=O)c2ccccc12"
  Target or test system: "Adenosine receptor A2a (Homo sapiens) (UniProt P29274)"
  inhibition (%): 10

A: COc1ccccc1CNC(=O)Nc1nn(-c2ccccc2)c(=O)c2ccccc12
B: O=C(Nc1nn(-c2ccccc2)c(=O)c2ccccc12)c1ccc(Cl)cc1
C: Cc1ccc(NC(=O)Nc2nn(-c3ccccc3)c(=O)c3ccccc23)cc1
D: O=C(Nc1nn(-c2ccccc2)c(=O)c2ccccc12)c1ccco1
E: O=C(Cc1ccccc1)Nc1nn(-c2ccccc2)c(=O)c2ccccc12
Q. Rank by inhibition (largest to smallest). Field: ranking. Enter the labels in the order requested.
A. D, A, B, E, C

---

Target or test system: UniProt P0DMS8
pKi: −log10 of the molar value.
Measured attribute: pKi

A: COc1cccc(NC(=O)Nc2nn(-c3ccccc3)c(=O)c3ccccc23)c1
B: Nc1nc2ccccc2n2c(=O)n(-c3ccccc3)nc12
Q. Identify the entry with the larger pKi. Options: A and B Return value: the label identifying the chosen record.
A. A

---

Target or test system: Adenosine receptor A3 (Homo sapiens) (UniProt P0DMS8)
Sequence (P0DMS8 whole entry): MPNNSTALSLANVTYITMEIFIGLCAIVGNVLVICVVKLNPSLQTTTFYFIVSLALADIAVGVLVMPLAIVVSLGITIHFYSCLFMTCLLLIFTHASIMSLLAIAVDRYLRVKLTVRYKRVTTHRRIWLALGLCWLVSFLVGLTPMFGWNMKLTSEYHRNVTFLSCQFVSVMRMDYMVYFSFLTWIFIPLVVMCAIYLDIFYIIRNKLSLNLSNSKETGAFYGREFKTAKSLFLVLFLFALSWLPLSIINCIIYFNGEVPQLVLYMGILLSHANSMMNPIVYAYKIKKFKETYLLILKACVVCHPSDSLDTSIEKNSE
Measurement protocol: Displacement of [125I]AB-MECA from human cloned adenosine A3 receptor expressed in CHO cells at 1 uM
Type: cell-based
Measured attribute: inhibition (%)

- Smi: "CC(=O)Nc1nn(-c2ccccc2)c(=O)c2ccccc12"
  inhibition [%]: 0
- Smi: "COc1ccc(C(=O)Nc2nn(-c3ccccc3)c(=O)c3ccccc23)cc1"
  inhibition [%]: 10
- Smi: "COc1ccc(NC(=O)Nc2nn(-c3ccccc3)c(=O)c3ccccc23)c(OC)c1"
  inhibition [%]: 33
- Smi: "CC(=O)N(C(C)=O)c1nn(-c2ccccc2)c(=O)c2ccccc12"
  inhibition [%]: 0
- Smi: "O=C(Nc1ccccc1Cl)Nc1nn(-c2ccccc2)c(=O)c2ccccc12"
  inhibition [%]: 49

I: O=C(Nc1nn(-c2ccccc2)c(=O)c2ccccc12)c1ccc(Cl)cc1
II: O=C(Cc1ccccc1)Nc1nn(-c2ccccc2)c(=O)c2ccccc12
III: Cc1ccc(NC(=O)Nc2nn(-c3ccccc3)c(=O)c3ccccc23)cc1
Q. Parameters: sort_field (inhibition), sort_dir (desc). The reply should contain the labels ordered as requested.
A. III, II, I

a: Cc1ccccc1NC(=O)Nc1nn(-c2ccccc2)c(=O)c2ccccc12
b: O=C(Nc1ccc(Cl)cc1)Nc1nn(-c2ccccc2)c(=O)c2ccccc12
c: O=C(Nc1nn(-c2ccccc2)c(=O)c2ccccc12)c1ccco1
Q. Which order do these items take when sorted by rising inhibition? List them. Please reply with the labels ordered as requested. Many thanks.
A. c, b, a
(c: 8%, b: 13%, a: 22%)

---

Target or test system: Adenosine receptor A1 (Homo sapiens)
Measurement protocol: Displacement of [3H]DPCPX from human cloned adenosine A1 receptor expressed in CHO cells at 10 uM
Type: cell-based
Measured attribute: inhibition (%)

Below are worked cases with known answers.
- Smi: "O=C(Nc1nn(-c2ccccc2)c(=O)c2ccccc12)c1ccco1"
  Output unit: "%"
  Recorded value: 23
- Smi: "CC(=O)Nc1nn(-c2ccccc2)c(=O)c2ccccc12"
  Output unit: "%"
  Recorded value: 52

A: O=C(Nc1ccccc1)Nc1nn(-c2ccccc2)c(=O)c2ccccc12
B: COc1ccc(NC(=O)Nc2nn(-c3ccccc3)c(=O)c3ccccc23)c(OC)c1
C: COc1ccc(OC)c(NC(=O)Nc2nn(-c3ccccc3)c(=O)c3ccccc23)c1
Q. Order the entries by their reported inhibition, beginning at the minimum. I would appreciate it if you listed the labels in the requested order.
A. C, B, A
(C: 0%, B: 29%, A: 44%)
